# System: vaccinia virus
# experiment: animal or person
# Assay type: in vivo, ICR female mice
# testContext: Orthopoxvirus vaccinia, in Mus musculus, ip, 192 h, read-out: Prevention from vaccinia infection (Pock inhibition rate %)
attributeMeasured: inhibition in vivo at 50 mg/kg

compound="CC(C)=CCCC(C)=CCCC(C)=CCCC(C)=CCCC(C)=CCCC(C)=CCCC(C)=CCCC(C)=CCCC(C)=CCCC(C)=CCNCc1cccc2ccccc12 [drawing 30]" observed=21.6%
compound="CC(C)=CCCC(C)=CCCC(C)=CCCC(C)=CCCC(C)=CCCC(C)=CCCC(C)=CCCC(C)=CCCC(C)=CCCC(C)=CCNc1ccc(C(=O)O)cc1 [drawing 26]" observed=15%
compound="CC(C)=CCCC(C)=CCCC(C)=CCCC(C)=CCCC(C)=CCCC(C)=CCCC(C)=CCCC(C)=CCCC(C)=CCCC(C)=CCNCCc1ccc(N)cc1 [drawing 35]" observed=64.4%
compound="CC(C)=CCCC(C)=CCCC(C)=CCCC(C)=CCCC(C)=CCCC(C)=CCCC(C)=CCCC(C)=CCCC(C)=CCCC(C)=CCNCC(O)c1ccccc1 (stereo not shown) [drawing 43]" observed=64.4%
compound="COc1ccc(CNCC=C(C)CCC=C(C)CCC=C(C)CCC=C(C)CCC=C(C)CCC=C(C)CCC=C(C)CCC=C(C)CCC=C(C)CCC=C(C)C)cc1OC [drawing 33]" observed=35.4%
compound="CC(C)=CCCC(C)=CCCC(C)=CCCC(C)=CCCC(C)=CCCC(C)=CCCC(C)=CCCC(C)=CCCC(C)=CCCC(C)=CCNCc1ccc(Cl)cc1 [drawing 32]" observed=34%
compound="CC(C)=CCCC(C)=CCCC(C)=CCCC(C)=CCCC(C)=CCCC(C)=CCCC(C)=CCCC(C)=CCCC(C)=CCCC(C)=CCNCCCc1ccccc1 [drawing 28]" observed=68.1%
compound="COc1ccc(CNCC=C(C)CCC=C(C)CCC=C(C)CCC=C(C)CCC=C(C)CCC=C(C)CCC=C(C)CCC=C(C)CCC=C(C)C)cc1OC [drawing 40]" observed=54.1%
compound="COc1cc(CNCC=C(C)CCC=C(C)CCC=C(C)CCC=C(C)CCC=C(C)CCC=C(C)CCC=C(C)CCC=C(C)CCC=C(C)CCC=C(C)C)ccc1O [drawing 38]" observed=67.1%
compound="CC(C)=CCCC(C)=CCCC(C)=CCCC(C)=CCCC(C)=CCCC(C)=CCCC(C)=CCCC(C)=CCCC(C)=CCCC(C)=CCNCc1cccc(CN)c1 [drawing 41]" observed=91.4%
compound="CC(C)=CCCC(C)=CCCC(C)=CCCC(C)=CCCC(C)=CCCC(C)=CCCC(C)=CCCC(C)=CCCC(C)=CCCC(C)=CCNC(c1ccccc1)c1ccccc1 [drawing 34]" observed=14.8%
compound="CC(C)=CCCC(C)=CCCC(C)=CCCC(C)=CCCC(C)=CCCC(C)=CCCC(C)=CCCC(C)=CCCC(C)=CCCC(C)=CCNc1ccc(C(=O)O)c(O)c1 [drawing 27]" observed=42.9%
compound="COc1ccc(CCNCC=C(C)CCC=C(C)CCC=C(C)CCC=C(C)CCC=C(C)CCC=C(C)CCC=C(C)CCC=C(C)CCC=C(C)CCC=C(C)C)cc1OC [drawing 37]" observed=68.1%

* * *

# experiment: Toxicity (50% lethal dose, intravenous)
# testContext: mouse, in vivo, ddY male mice 20-25 g, read-out: LD50 (Intravenously administered mg/kg)
attributeMeasured: LD50 (mg/kg)

molecule="CC(C)=CCCC(C)=CCCC(C)=CCCC(C)=CCCC(C)=CCCC(C)=CCCC(C)=CCCC(C)=CCCC(C)=CCCC(C)=CCNc1ccc(C(=O)O)c(O)c1 [drawing 60]" observed=45
molecule="CC(C)=CCCC(C)=CCCC(C)=CCCC(C)=CCCC(C)=CCCC(C)=CCCC(C)=CCCC(C)=CCCC(C)=CCCC(C)=CCNC(c1ccccc1)c1ccccc1 [drawing 66]" observed=1180
molecule="COc1ccc(CNCC=C(C)CCC=C(C)CCC=C(C)CCC=C(C)CCC=C(C)CCC=C(C)CCC=C(C)CCC=C(C)CCC=C(C)CCC=C(C)C)cc1 [drawing 68]" observed=68

* * *

# experiment: Toxicity (50% lethal dose, intravenous)
# testContext: mouse, in vivo, ddY male mice 20-25 g, read-out: LD50 (Intravenously administered mg/kg)
attributeMeasured: LD50 (mg/kg)

compound="COc1ccc(CNCC=C(C)CCC=C(C)CCC=C(C)CCC=C(C)CCC=C(C)CCC=C(C)CCC=C(C)CCC=C(C)CCC=C(C)CCC=C(C)C)cc1OC [drawing 65]" attributemeasured=LD50 qualifiersymbol== observed=56.8
compound="CC(C)=CCCC(C)=CCCC(C)=CCCC(C)=CCCC(C)=CCCC(C)=CCCC(C)=CCCC(C)=CCCC(C)=CCCC(C)=CCNCc1ccc(C)cc1 [drawing 63]" attributemeasured=LD50 qualifiersymbol== observed=123
compound="COc1cccc(CNCC=C(C)CCC=C(C)CCC=C(C)CCC=C(C)CCC=C(C)CCC=C(C)CCC=C(C)CCC=C(C)CCC=C(C)CCC=C(C)C)c1OC [drawing 70]" attributemeasured=LD50 qualifiersymbol== observed=30
compound="CC(C)=CCCC(C)=CCCC(C)=CCCC(C)=CCCC(C)=CCCC(C)=CCCC(C)=CCCC(C)=CCCC(C)=CCCC(C)=CCNCc1ccc(Cl)cc1 [drawing 64]" attributemeasured=LD50 qualifiersymbol== observed=371
compound="CC(C)=CCCC(C)=CCCC(C)=CCCC(C)=CCCC(C)=CCCC(C)=CCCC(C)=CCCC(C)=CCCC(C)=CCCC(C)=CCNCCc1ccc(N)cc1 [drawing 67]" attributemeasured=LD50 qualifiersymbol== observed=28
compound="CC(C)=CCCC(C)=CCCC(C)=CCCC(C)=CCCC(C)=CCCC(C)=CCCC(C)=CCCC(C)=CCCC(C)=CCCC(C)=CCNc1ccc(C(=O)O)cc1 [drawing 59]" attributemeasured=LD50 qualifiersymbol== observed=27.7
compound="COc1ccc(CNCC=C(C)CCC=C(C)CCC=C(C)CCC=C(C)CCC=C(C)CCC=C(C)CCC=C(C)CCC=C(C)CCC=C(C)C)cc1OC [drawing 69]" attributemeasured=LD50 qualifiersymbol== observed=26
compound="CC(C)=CCCC(C)=CCCC(C)=CCCC(C)=CCCC(C)=CCCC(C)=CCCC(C)=CCCC(C)=CCCC(C)=CCCC(C)=CCNCc1cccc2ccccc12 [drawing 62]" attributemeasured=LD50 qualifiersymbol== observed=207
compound="CC(C)=CCCC(C)=CCCC(C)=CCCC(C)=CCCC(C)=CCCC(C)=CCCC(C)=CCCC(C)=CCCC(C)=CCCC(C)=CCNCc1ccc([N+](=O)[O-])cc1 [drawing 61]" attributemeasured=LD50 qualifiersymbol=> observed=269
